Target: human cloned somatostatin receptor 4 (human) (UniProt P31391)
Sequence (P31391 whole entry): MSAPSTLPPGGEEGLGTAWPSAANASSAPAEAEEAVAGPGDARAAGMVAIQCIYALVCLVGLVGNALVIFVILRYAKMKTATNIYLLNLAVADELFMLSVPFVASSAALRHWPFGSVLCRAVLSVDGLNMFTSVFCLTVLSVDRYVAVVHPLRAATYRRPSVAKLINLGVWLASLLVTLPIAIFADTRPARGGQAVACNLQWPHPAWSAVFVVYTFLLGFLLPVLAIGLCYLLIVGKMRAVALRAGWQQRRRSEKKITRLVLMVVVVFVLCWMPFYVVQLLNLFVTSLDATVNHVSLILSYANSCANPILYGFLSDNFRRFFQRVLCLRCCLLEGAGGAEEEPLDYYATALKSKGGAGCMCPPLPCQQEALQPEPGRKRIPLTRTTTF
Assay: 125I-Tyr11-SRIF-14 displacement
*1 amine or outer side, *2 acyl side, *3 side chain or, on linkers, in order; H or OH if unused. Bridges are numbered along the chain shown (N, C = ends). Where no end group is shown, it is not given here. [ ]: non-standard residue; d: D form. The star is where a group is joined. DOTA = O=C(O)CN1CCN(CC(=O)O)CCN(CC(=O)*)CCN(CC(=O)O)CC1; N(2-mercaptoethyl)Gly = O=C(CN(CCS[*:3])[*:1])[*:2]; Orn = NCCC[C@H](N)C(=O)O; Aoc = NCCCCCCCC(=O)O
Observable: % displacement at 1 nM (%)
Numeric answer only, unit % assumed.

The cases that follow already have their % displacement at 1 nM on record.
Binder	Result Units	% displacement at 1 nM
{DOTA-Aoc}-[dF]RCF[dW]KTF[N(2-mercaptoethyl)Gly]-NH2 (disulfide 3-9) [SEQ ID NO: 15]	%	0
K[dF]RCF[dW]KTF[N(2-mercaptoethyl)Gly]-NH2 (disulfide 4-10; not fully specified (residue 1, N-terminus); printed as (DOTA)2-Lys1-D-Phe2-Arg3-Cys4-Phe5-D-Trp6-Lys7-Thr8-Phe9-NTEG10-NH2 (cyclo 3-9); also: (DOTA)2 on Lys1, sites not given here) [SEQ ID NO: 16]	%	0
{DOTA}-[dF][Orn]CF[dW]KTF[N(2-mercaptoethyl)Gly]-NH2 (disulfide 3-9) [SEQ ID NO: 21]	%	9

Alright, here's another binder for you.
Asked: I am curious: what % displacement at 1 nM value has been reported for {DOTA}-[dF]KCF[dW]KTF[N(2-mercaptoethyl)Gly]-NH2 (disulfide 3-9; SMILES C[C@@H](O)[C@@H]1NC(=O)[C@H](CCCCN)NC(=O)[C@@H](Cc2c[nH]c3ccccc23)NC(=O)[C@H](Cc2ccccc2)NC(=O)[C@@H](NC(=O)[C@H](CCCCN)NC(=O)[C@@H](Cc2ccccc2)NC(=O)CN2CCN(CC(=O)O)CCN(CC(=O)O)CCN(CC(=O)O)CC2)CSSCCN(CC(N)=O)C(=O)[C@H](Cc2ccccc2)NC1=O) [SEQ ID NO: 9] ?
Given back: 0

These entries and their values trace back to patent US20240165282A1.
